# GI50 listing for each entry below
Tested on: NCI-H23
Experiment: NCI tumour cell line growth inhibition, 48 h
Active and inactive are the calls of the source. Rule as the data show it: active = GI50 up to about 1.1 µM and inactive = higher.

compound	GI50
NC(=S)N/N=C1\c2ccccc2CCC1CCC1(O)CCc2ccccc2C1=O (stereo unspecified)	25.5 µM (inactive)
COc1cc(Oc2nc3c(N)cc(C(F)(F)F)cc3nc2-c2ccccc2)cc(OC)c1OC	2.82 µM (inactive)
CN(C)C(c1ccccc1)C(O)c1ccccc1 (stereo unspecified)	> 100 µM (inactive)
[N-]=[N+]=Nc1c(Cl)c(=O)n(-c2ccccc2)c2ccccc12	19.6 µM (inactive)
CC(=O)/C=N/CC(=O)O	> 100 µM (inactive)
CCC(C)NC(=S)N/N=C(\C)c1nc2cccnc2[nH]1 (stereo unspecified)	41.6 µM (inactive)
Cc1nnc(N2C(=O)C(=Cc3ccc(Cl)cc3)N=C2c2ccc(Cl)cc2)nc1/C=C\c1ccc(N(C)C)cc1	> 100 µM (inactive)
COc1ccc(NC(=S)N/N=C/c2c(C)n(C)n(-c3ccccc3)c2=O)cc1	31.5 µM (inactive)
O=C1NC(=S)N/C1=C\c1ccc(Cl)cc1	> 100 µM (inactive)
OC(C1CCCCCCCCCC1)C(O)C1CCCCCCCCCC1 (stereo unspecified)	43.2 µM (inactive)
COC(=O)Cc1c(C2=Nc3ccccc3C2(O)CC(=O)OC)[nH]c2ccccc12 (stereo unspecified)	> 100 µM (inactive)
